target: 5-lipoxygenase (Rattus norvegicus, UniProt P12527); construct: rat basophilic leukemia cells (RBL-1, ATCC No. CRL 1378) were used as the 5-lipoxygenase source; endogenous in cells; host or cells: RBL-1 (rat basophilic leukemia, ATCC CRL 1378); assay: Leukocyte 5-lipoxygenase inhibiting activity (Test Example 1, HPLC determination of 5-HETE); type: biochemical; settings: RBL-1 cells as enzyme source; 60 μM arachidonic acid; pH 7.4; 37° C., 5 min; HPLC of 5-HETE; read-out: Inhibitory Activity IC50, 5-Lipoxygenase
Sequence (P12527 whole entry): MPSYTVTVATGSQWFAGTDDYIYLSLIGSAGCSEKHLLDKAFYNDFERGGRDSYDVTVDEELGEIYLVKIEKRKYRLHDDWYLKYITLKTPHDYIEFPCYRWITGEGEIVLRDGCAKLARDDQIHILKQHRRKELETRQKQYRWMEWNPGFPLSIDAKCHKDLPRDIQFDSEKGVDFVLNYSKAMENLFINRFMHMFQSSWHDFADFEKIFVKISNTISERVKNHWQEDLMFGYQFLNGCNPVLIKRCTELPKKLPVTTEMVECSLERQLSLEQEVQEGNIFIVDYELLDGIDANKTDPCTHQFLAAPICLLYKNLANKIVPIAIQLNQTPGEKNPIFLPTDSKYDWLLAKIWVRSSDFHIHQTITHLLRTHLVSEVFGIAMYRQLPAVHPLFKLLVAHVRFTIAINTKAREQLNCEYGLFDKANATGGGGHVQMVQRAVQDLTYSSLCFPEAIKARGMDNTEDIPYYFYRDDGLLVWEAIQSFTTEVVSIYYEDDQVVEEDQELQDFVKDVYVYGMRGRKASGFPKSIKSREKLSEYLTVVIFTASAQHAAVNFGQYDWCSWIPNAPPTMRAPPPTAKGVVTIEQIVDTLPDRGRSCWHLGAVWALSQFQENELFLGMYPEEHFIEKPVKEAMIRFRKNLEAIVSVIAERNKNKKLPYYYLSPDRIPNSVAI
pIC50 values, listed per item
Scale: negative log10 of molar concentration, which is what pIC50 denotes.

Problem: Please report pIC50 for the following molecule: `CCCCCCCCCCCC(=O)N(O)CCCCCNC(=O)CC(=O)OCC`
Result: 7.60

Problem: Please report pIC50 for the following molecule: `CCCCCCCCCCCC(=O)N(O)CCCNC(=O)CCC(=O)OC`
Result: 7.92

Problem: Please report pIC50 for the following molecule: `CCCCCCCCCCCC(=O)N(O)CCCCCNC(=O)CC(=O)OC`
Result: 7.27

Problem: Please report pIC50 for the following molecule: `CCCCCCCCCCCC(=O)N(O)CCCCCNCCCC(=O)OC`
Result: 7.28

Problem: Please report pIC50 for the following molecule: `CCCCCCCCCCCC(=O)N(O)CCCCCNCCCC(=O)O`
Result: 6.25

Problem: Please report pIC50 for the following molecule: `CCCCCCCCCCCC(=O)NCCCCCN(O)C(=O)CCC(=O)OC`
Result: 8.00

Problem: Please report pIC50 for the following molecule: `CCCCCCCCCCCC(=O)N(O)CCCNC(=O)CCC(=O)O`
Result: 6.57

====

Molecular target: 12-lipoxygenase (Bos taurus, UniProt F1MFA8)
Construct: a bovine platelet-derived preparation was used as the 12-lipoxygenase source; from tissue; host or cells: bovine platelets
Sequence (F1MFA8 1-663): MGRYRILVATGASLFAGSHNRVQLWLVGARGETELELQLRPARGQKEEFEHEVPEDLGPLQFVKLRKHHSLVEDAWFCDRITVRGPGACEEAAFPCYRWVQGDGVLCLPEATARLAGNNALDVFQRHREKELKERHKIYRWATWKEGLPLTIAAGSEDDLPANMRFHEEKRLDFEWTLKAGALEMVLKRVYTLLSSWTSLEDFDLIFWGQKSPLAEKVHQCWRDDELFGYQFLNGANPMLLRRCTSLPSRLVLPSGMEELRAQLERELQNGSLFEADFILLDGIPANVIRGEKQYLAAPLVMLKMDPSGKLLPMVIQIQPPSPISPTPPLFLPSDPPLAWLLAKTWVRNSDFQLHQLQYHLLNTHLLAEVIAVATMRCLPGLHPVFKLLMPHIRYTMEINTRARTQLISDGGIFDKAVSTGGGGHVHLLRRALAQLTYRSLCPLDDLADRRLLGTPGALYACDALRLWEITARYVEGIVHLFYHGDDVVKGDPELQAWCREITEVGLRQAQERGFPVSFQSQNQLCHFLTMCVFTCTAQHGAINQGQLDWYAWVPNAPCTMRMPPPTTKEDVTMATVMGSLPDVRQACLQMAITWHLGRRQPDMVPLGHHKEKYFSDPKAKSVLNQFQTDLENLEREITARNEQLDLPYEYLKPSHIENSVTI
Experiment: Platelet 12-lipoxygenase inhibiting activity (Test Example 1, HPLC determination of 12-HETE)
Assay type: biochemical
Settings: bovine platelet-derived preparation; 60 μM arachidonic acid; pH 7.4; 30° C., 10 min; HPLC of 12-HETE; read-out: Inhibitory Activity IC50, 12-Lipoxygenase
Description: The compounds listed in Table 2 were tested in vitro for their lipoxygenase inhibiting activity in the following manner: a) Leukocyte 5-lipoxygenase inhibiting activity The method of D.H. Nugtern et al. Biochem. Biophys. Acta, 380, 299 (1975) was modified. Thus, a bovine platelet-derived preparation was used as the 12-lipoxygenase source. […] The yield of 12-HETE was calculated from the peak area corrected in comparison with the peak of the internal standard.
IC50 values, listed per item
Give the quantity in µM, number only.

See these solved cases before continuing.
MOLECULE | VALUE_MEASURED
CCCCCCCCCCCC(=O)N(O)CCCCCNC(=O)CC(=O)OCC [Compound No. 8] | 0.012
CCCCCCCCCCCC(=O)N(O)CCCCCNC(=O)CC(=O)OC [Compound No. 9] | 0.011
CCCCCCCCCCCC(=O)NCCCCCN(O)C(=O)CCC(=O)OC [Compound No. 2] | 3.3

Problem: Name the recorded IC50 of CCCCCCCCCCCC(=O)N(O)CCCNC(=O)CCC(=O)O [Compound No. 10] , assay system 12-lipoxygenase (Bos taurus, UniProt F1MFA8).
Result: 7

====

biological target: 5-lipoxygenase (Rattus norvegicus, UniProt P12527); construct: rat basophilic leukemia cells (RBL-1, ATCC No. CRL 1378) were used as the 5-lipoxygenase source; endogenous in cells; host or cells: RBL-1 (rat basophilic leukemia, ATCC CRL 1378); experiment: 5-Lipoxygenase inhibiting activity (Test Example 2, [14C]-arachidonic acid, TLC); format: biochemical; details: RBL-1 cells as enzyme source; 27 μM [14C]-arachidonic acid; pH 7.4; 37° C., 5 min; TLC/scintillation; read-out: Inhibitory Activity IC50, 5-Lipoxygenase
MEASURED_QUANTITY: pIC50
Scale: negative log10 of molar concentration, which is what pIC50 denotes.

See these solved cases before continuing.
COMPOUND | MEASURED_QUANTITY | VALUE_MEASURED
CCC(C)CCCCCCCCCCC(=O)N(O)CCCCCNC(=O)CCC(=O)OC (stereo not drawn) | pIC50 | 6.44
CCCCCCCCCCCCCCCCCC(=O)N(O)CCCCCNC(=O)CCC(=O)OC | pIC50 | 6.10

Problem: Please report pIC50 for the following compound: `CCCCCCCCCCCC(=O)N(O)CCCCCNC(=O)CCC(=O)O`
Result: 5.73

Problem: Please report pIC50 for the following compound: `COC(=O)CCC(=O)NCCCCCN(O)C(=O)CCCCCCCCC(C)C`
Result: 7.05

Problem: Please report pIC50 for the following compound: `CCCCCCCCCCCCCCCC(=O)N(O)CCCCCNC(=O)CCC(=O)OC`
Result: 6.33

Problem: Please report pIC50 for the following compound: `COC(=O)CCC(=O)NCCCCCN(O)C(=O)CCCCCCCCCCC(C)C`
Result: 6.52

====

molecular target: 12-lipoxygenase (Bos taurus); construct: a bovine platelet-derived preparation was used as the 12-lipoxygenase source; from tissue; host or cells: bovine platelets; assay: Platelet 12-lipoxygenase inhibiting activity (Test Example 2, [14C]-arachidonic acid, TLC); format: biochemical; details: bovine platelet-derived preparation; 20 μM [14C]-arachidonic acid; pH 7.4; 30° C., 10 min; TLC/scintillation; read-out: Inhibitory Activity IC50, 12-Lipoxygenase
MEASURED_QUANTITY: IC50 (nM)
Give the quantity in nM, number only.

MOLECULE | MEASURED_QUANTITY | VALUE_MEASURED
CC1=C(C)C(=O)C(CCCCC#CCCCC#CCO)=C(C)C1=O [AA-861, reference compound] | IC50 | 450000
CCC(C)CCCCCCCCCCC(=O)N(O)CCCCCNC(=O)CCC(=O)OC (stereo not shown) [compound 21] | IC50 | 310
COC(=O)CCC(=O)NCCCCCN(O)C(=O)CCCCCCCCC(C)C [compound 27] | IC50 | 33
COC(=O)CCC(=O)NCCCCCN(O)C(=O)CCCCCCCCCCC(C)C [compound 23] | IC50 | 56
CCCCCCCCCCCC(=O)N(O)CCCCCNC(=O)CCC(=O)OC [Compound No. 13] | IC50 | 14
Cl.NC1=NN(c2cccc(C(F)(F)F)c2)CC1 [BW-755C, hydrochloride] | IC50 | 8800

Now turn to the next molecule.
Problem: Please report IC50 for the following molecule: CCCCCCCCCCCCC(=O)N(O)CCCCCNC(=O)CCC(=O)OC [compound 24]
Result: 36

====

target: 5-lipoxygenase (Rattus norvegicus); construct: rat basophilic leukemia cells (RBL-1, ATCC No. CRL 1378) were used as the 5-lipoxygenase source; endogenous in cells; host or cells: RBL-1 (rat basophilic leukemia, ATCC CRL 1378); test: 5-Lipoxygenase inhibiting activity (Test Example 2, [14C]-arachidonic acid, TLC); type: biochemical; conditions: RBL-1 cells as enzyme source; 27 μM [14C]-arachidonic acid; pH 7.4; 37° C., 5 min; TLC/scintillation; read-out: Inhibitory Activity IC50, 5-Lipoxygenase
pIC50 values, listed per item
Scale: negative log10 of molar concentration, which is what pIC50 denotes.

See these solved cases before continuing.
COMPOUND | TESTED_ON | VALUE_MEASURED
CC1=C(C)C(=O)C(CCCCC#CCCCC#CCO)=C(C)C1=O [AA-861, reference compound] | 5-lipoxygenase (Rattus norvegicus) | 6.17
CCCCCCCCCCCC(=O)N(O)CCCCCNC(=O)CCC(=O)OC | 5-lipoxygenase (Rattus norvegicus) | 7.26

Now turn to the next compound.
Problem: Name the recorded pIC50 of `CCCCCCCCCCCCC(=O)N(O)CCCCCNC(=O)CCC(=O)OC` , assay system 5-lipoxygenase (Rattus norvegicus).
Result: 6.72
